Overview of reported composite z-score across a group of compounds:
- Assay Procedure: probe aShh binding to arrayed compounds – biochemical, biotinylated probe, 635/667 nm fluorescence, primary screen (AID 1114);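 further: probe is biotin-labelled aShh protein from a stem cell growth factor screen; measures binding of labelled protein to compounds printed on the slide; score merges feature fluorescence at 667 nm with signal-to-noise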
- Experimental Context: small-molecule microarray, higher = more signal
Measurement Type: composite z-score

Compound	Measurement Type	Observed Result
CCOC(=O)C[C@H]1[C@H](OC(=O)Cc2ccc3c(c2)OCO3)[C@@H](NC(=O)c2ccccc2)c2cc(OCCCO)ccc2N1C(=O)c1ccc2ccccc2n1	composite z-score	0.172
C=CCOC(=O)[C@@H]1[C@H]2C(=O)O[C@H](c3ccccc3)[C@H](c3ccccc3)N2[C@H](c2ccc(OCCOC(=O)[C@H]3C[C@H]4C(=O)N[C@@H](Cc5ccccc5)C(=O)N4[C@H]3c3cccc(OCCO)c3)cc2)[C@@]12C(=O)Nc1ccc(I)cc12	composite z-score	0.116
CCCN1C(=O)[C@@H]2Cc3c([nH]c4ccccc34)[C@@H](c3cccc(O)c3)N2C1=O	composite z-score	-0.221
C[C@]12C(=O)N(CCCCCO)[C@@H]3C(=O)N(c4ccc(Cl)cc4)CC=CC31O[C@@H]1/C=C\CCCOC(=O)C12 (stereo partly specified)	composite z-score	-0.138
CO[C@H]1O[C@H](CO)[C@@H](OC(=O)c2ccc(Br)cc2)[C@@H]2OC(=O)[C@H](Cc3cccc(Br)c3)C/C=C/C[C@@H](Cc3cccc(Br)c3)C(=O)O[C@@H]12	composite z-score	0.317
COCCOC(=O)N1C(=O)[C@@]2(c3cc(C#CCNC(N)=O)ccc31)[C@H](c1ccc(OCCO)cc1)N1[C@H](c3ccccc3)[C@H](c3ccccc3)OC(=O)[C@H]1[C@@H]2C(=O)N1CCN(c2ncccn2)CC1	composite z-score	-0.138
